Assay: chemical genetic growth profiling, strain panel (AID 1159580);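 also: tested at 20 µM; growth read once vehicle control cultures reached saturation at 30 °C; 1 = growth at the plate median or of vehicle wells; lower values mean less growth of the strain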
Settings: S. cerevisiae deletion strains, growth OD, locus YDL134C, strain PPH21, active compounds read low
In all, about 5,500 compounds went through this assay and about 2,000 (36%) were called active. Inconclusive results (about 18%) are left out. Some of the results follow.

# Molecule, normalized growth
records = [
    ("CC(C)[C@@H]1CC[C@@H](C)C[C@H]1O", 1.01),
    ("O=C(c1ccccc1)c1cc2c(cc1Br)OCCO2", 0.942),
    ("CCCCOC(=O)c1ccc(N)cc1", 0.969),
    ("CCCCNc1ccc(C(=O)OCCN(C)C)cc1", 1.01),
    ("COC(=O)C1=CCCN(C)C1", 0.969),
    ("CC(C)COCC(CN(Cc1ccccc1)c1ccccc1)N1CCCC1 (stereo not drawn)", 0.9),
    ("CCCCN(CCCC)CCCOC(=O)c1ccc(N)cc1", 1),
    ("Cc1c(Cl)cccc1Nc1ccccc1C(=O)O", 0.817),
    ("Cc1cccc(C(=O)O)c1O", 1.01),
    ("CCCCOC(=O)c1ccccc1C(=O)OCc1ccccc1", 0.986),
    ("CC(C)C(=O)Nc1ccc([N+](=O)[O-])c(C(F)(F)F)c1", 0.991),
    ("CCN(CC)CCOC(=O)c1ccc(N)cc1", 1.01),
    ("CC1(C)NC(=O)N(c2ccc([N+](=O)[O-])c(C(F)(F)F)c2)C1=O", 1.02),
]

---

Measured normalized growth values are reported for all entries that follow.
Experiment: chemical genetic growth profiling, strain panel (AID 1159580);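 also: tested at 20 µM; growth read once vehicle control cultures reached saturation at 30 °C; 1 = growth at the plate median or of vehicle wells; lower values mean less growth of the strain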
Details: S. cerevisiae deletion strains, growth OD, locus YKL067W, strain YNK1, active compounds read low
Screen size: about 5,500 compounds; about 2,000 (36%) were called active. Inconclusive results (about 18%) are left out. Some of the results follow.

# Compound, normalized growth
records = [
    ("FC(F)(F)c1cccc(-n2c(CSCc3cccc4ccccc34)n[nH]c2=S)c1", "0.989 (inactive)"),
    ("Cc1onc(-c2c(F)cccc2Cl)c1C(=O)ON=C1C2CC3CC(C2)CC1C3", "0.974 (inactive)"),
    ("O=C(NNc1ccc(I)cc1)c1cc(Cl)cc(Cl)c1", "0.906 (inactive)"),
    ("Cc1c(C(=O)N(Cc2ccccc2)Cc2cccs2)cnn1-c1ccc(Cl)cc1", "0.968 (inactive)"),
    ("CCCCCCCCCCCC(=O)NOC(=O)c1c(-c2c(Cl)cccc2Cl)noc1C", "0.944 (inactive)"),
    ("Cc1ccc(NNC(=O)c2c(C)noc2C)cc1Cl", "0.935 (inactive)"),
    ("CC(=O)ON=C1c2cc([N+](=O)[O-])ccc2-c2ccc([N+](=O)[O-])cc21", "0.864 (inactive)"),
    ("O=C(Nc1ccc(OC(F)(F)F)cc1)OC1CN(C(c2ccccc2)c2ccccc2)C1", "0.969 (inactive)"),
    ("CC1(C)OC(=O)C(=Cc2cccn2-c2ccc(OC(F)(F)F)cc2)C(=O)O1", "0.915 (inactive)"),
    ("Cc1nc(-c2ccc(S(=O)(=O)Nc3ccc(Br)cc3Cl)s2)cs1", "0.883 (inactive)"),
    ("Cc1ccc(NS(=O)(=O)c2ccc(-c3csc(C)n3)s2)c(C)c1", "0.898 (inactive)"),
    ("O=C(Nc1ccc(Cl)cc1)OCCSc1nc2ccccc2s1", "0.901 (inactive)"),
    ("O=[N+]([O-])c1ccc2oc(C(O)c3cccc(Cl)c3)cc2c1 (stereo not drawn)", "0.942 (inactive)"),
    ("Cc1c(C(=S)Nc2ccccc2)sc2ccccc12", "0.884 (inactive)"),
    ("S=c1[nH]nc(Nc2ccc(I)cc2)s1", "0.746 (inactive)"),
    ("Cc1cccc(NC(=S)NNC(=O)CSCc2cccc3ccccc23)c1", "0.914 (inactive)"),
    ("CCc1ccn2cc(Nc3ccccc3Cl)nc2c1", "0.962 (inactive)"),
    ("Cc1onc(-c2c(Cl)cccc2Cl)c1C(=O)NC(C)(C)CC(C)(C)C", "0.961 (inactive)"),
    ("CCCCN(C)C(=O)c1cc([N+](=O)[O-])cc2c1-c1ccc([N+](=O)[O-])cc1C2=C(C#N)C#N", "0.971 (inactive)"),
    ("O=C(Nc1ccc(OC(F)(F)F)cc1)N1CCN(c2nc(-c3ccccc3)ns2)CC1", "0.844 (inactive)"),
    ("Cc1onc(-c2c(F)cccc2Cl)c1C(=O)NNc1cc(Cl)cc(Cl)c1", "0.927 (inactive)"),
    ("N#CC(C#N)=Cc1ccc(-c2ccccc2C(F)(F)F)o1", "0.89 (inactive)"),
    ("Cc1c(-c2ccnn2C(=O)c2ccco2)cnn1-c1ccccc1", "0.908 (inactive)"),
]

---

Assay: chemical genetic growth profiling, strain panel (AID 1159580);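 also: tested at 20 µM; growth read once vehicle control cultures reached saturation at 30 °C; 1 = growth at the plate median or of vehicle wells; lower values mean less growth of the strain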
Details: S. cerevisiae deletion strains, growth OD, locus YNL322C, strain KRE1, active compounds read low
Among all 5,500 compounds or so, about 2,000 (36%) were called active. About 18% were inconclusive and are not listed. The list shows a part of the results.
Readout Label: normalized growth

# Compound, Readout Label, Endpoint Result
records = [
    ("Cc1onc(-c2c(Cl)cccc2Cl)c1C(=O)OCC(F)(F)F", "normalized growth", 1),
    ("NC(=O)c1cccc(N)c1", "normalized growth", 1.01),
    ("CC(=O)c1cnn(-c2ccccc2)c1C", "normalized growth", 0.997),
    ("Cc1ccc(CC(=O)O)cc1", "normalized growth", 0.981),
    ("Clc1ccc(C2=CSC3=NCCCN23)cc1", "normalized growth", 0.999),
    ("Cc1cccc(C)c1NC1=NCCCS1", "normalized growth", 1.01),
    ("CC(/C=N\\O)=N/Nc1ccccc1", "normalized growth", 1.01),
    ("N#C/C(=C\\c1cccn1-c1ccc(OC(F)(F)F)cc1)S(=O)(=O)c1ccccc1", "normalized growth", 1),
    ("Clc1ccc(Cn2c(CN3CCCC3)nc3ccccc32)cc1", "normalized growth", 0.989),
    ("O=[N+]([O-])c1ccc2c(c1)NC(c1ccc([N+](=O)[O-])s1)O2 (stereo unspecified)", "normalized growth", 0.0534),
    ("COc1cc2occ(-c3ccccc3)c(=O)c2c(OC)c1C", "normalized growth", 0.965),
    ("CN1c2ccccc2C(=O)NC1c1ccc([N+](=O)[O-])s1 (stereo unspecified)", "normalized growth", 0.995),
    ("O=C(CSCc1cccc2ccccc12)NNC(=O)c1ccc(F)cc1", "normalized growth", 1),
    ("Cc1cccc(C(=O)O)c1O", "normalized growth", 1.01),
    ("Cc1ccc(Cl)c(Nc2ccccc2C(=O)O)c1Cl", "normalized growth", 0.893),
    ("O=C(CSCc1cccc2ccccc12)NNC(=S)Nc1ccccc1Cl", "normalized growth", 0.996),
    ("CCC(C)c1cnc(CC(C)C)c(=O)n1O (stereo unspecified)", "normalized growth", 0.579),
    ("Cc1onc(-c2c(F)cccc2Cl)c1C(=O)Oc1ccccc1", "normalized growth", 0.973),
    ("N[C@H](CO)C(=O)O", "normalized growth", 1),
    ("O=C1CCC(c2cccs2)=NN1", "normalized growth", 0.985),
    ("CC[C@H](C)C(=O)O[C@H]1CCC=C2C=C[C@H](C)[C@H](CC[C@@H]3C[C@@H](O)CC(=O)O3)[C@H]21", "normalized growth", 0.995),
    ("Cc1onc(-c2c(Cl)cccc2Cl)c1C(=O)Oc1ccc(Cl)c(Cl)c1", "normalized growth", 1.01),
    ("Cc1ccc(NC(=O)c2c(F)cccc2Cl)c(C(=O)Nc2ccc(F)cc2)c1", "normalized growth", 0.997),
    ("Clc1cccc(NC2=NCCS2)c1Cl", "normalized growth", 0.994),
    ("NC[C@@H]1CC[C@@H](N)[C@@H](O[C@H]2[C@H](O)[C@@H](O[C@H]3O[C@H](CO)[C@@H](O)[C@H](N)[C@H]3O)[C@H](N)C[C@@H]2N)O1", "normalized growth", 0.987),
    ("CC12NC(=O)NC1(C)NC(=O)N2 (stereo unspecified)", "normalized growth", 1.01),
    ("COc1c(OC)c2occc2c2oc(=O)ccc12", "normalized growth", 0.973),
    ("N#Cc1c(F)cccc1Oc1ccc(F)cc1", "normalized growth", 0.962),
    ("CO/N=C(\\C(=O)N[C@@H]1C(=O)N2C(C(=O)O)=C(COC(C)=O)CS[C@H]12)c1csc(N)n1", "normalized growth", 1),
    ("COc1cc([C@@H]2c3cc4c(c(O)c3C[C@H]3COC(=O)[C@@H]32)OCO4)cc(OC)c1OC", "normalized growth", 0.979),
    ("CC[C@H](C)C(=O)O[C@H]1C[C@@H](C)C=C2C=C[C@H](C)[C@H](CC[C@@H]3C[C@@H](O)CC(=O)O3)[C@H]21", "normalized growth", 0.986),
    ("CC[C@H](C)C(=O)O[C@H]1CCC=C2C=C[C@H](C)C(CCC3C[C@@H](O)CC(=O)O3)[C@H]21 (stereo partly specified)", "normalized growth", 0.989),
    ("CCCCCCCCCCCCCC(=O)O[C@@H]1[C@@H](C)[C@@]2(O)[C@@H](C=C(CO)C[C@@]3(O)C(=O)C(C)=C[C@@H]23)C2C(C)(C)[C@@]21OC(C)=O (stereo partly specified)", "normalized growth", 1),
    ("CCOC(=O)Cn1c(=O)c(C#N)cn(C(C)C)c1=O", "normalized growth", 1.01),
    ("Cc1c(Cl)cccc1Nc1ccccc1C(=O)O", "normalized growth", 0.876),
    ("Cc1cc(NC(=O)c2c(-c3c(Cl)cccc3Cl)noc2C)c([N+](=O)[O-])cc1C", "normalized growth", 0.981),
    ("CC1(C)O[C@H]2[C@H](O)C[C@](O)(C(N)=O)C[C@H]2O1", "normalized growth", 1.02),
    ("N=C1Sc2ccccc2C2=NCCCN12", "normalized growth", 1.01),
    ("O=C(c1ccccc1)c1cc2c(cc1Br)OCCO2", "normalized growth", 0.955),
    ("O=S1OCC2C(CO1)C1(Cl)C(Cl)=C(Cl)C2(Cl)C1(Cl)Cl (stereo unspecified)", "normalized growth", 0.978),
    ("CCCCN1CCCCC1C(=O)Nc1c(C)cccc1C (stereo unspecified)", "normalized growth", 1.01),
    ("N#C/C(=C\\c1ccc(Oc2ccccc2)nc1)S(=O)(=O)c1ccccc1", "normalized growth", 1),
    ("COc1cc(-c2coc3cc(OCc4ccccc4)c(OC)c(O)c3c2=O)cc(O)c1OC", "normalized growth", 0.823),
    ("O=c1[nH]oc2c1CCNC2", "normalized growth", 0.999),
    ("Cc1onc(-c2ccccc2)c1NC(=O)Nc1c(Cl)cccc1Cl", "normalized growth", 0.976),
    ("Nc1cc2c(cc1Cl)C(=O)NC2=O", "normalized growth", 0.999),
]

Data origin, for the record: PubChem BioAssay AID1159580
